- Test system: HEK293 parental cells
- method notes: FACS binding to HEK293 parental cells
- condition context: 10 μg/mL antibody
- Method: Binding ratios for human APLNR binding to purified anti-APLNR monoclonal antibodies were determined by a fluorescence-activated cell sorting (FACS) binding assay. […] The resulting stable cell lines, HEK293/CRE-luc/hAPLNR and HEK293/CRE-luc/MfAPLNR, were maintained in DMEM containing 10% FBS, NEAA, and penicillin/streptomycin with either 100 μg/mL Hygromycin B for hAPLNR cells or 500 μg/mL G418 for MfAPLNR cells. […]
Recorded Binding Ratio of Geom. Mean to Unstained Cells, HEK293 Parental for the following molecules
observed property: Binding Ratio of Geom. Mean to Unstained Cells, HEK293 Parental

molecule: H2aM9232N: antagonistic anti-APLNR antibody, HCVR/LCVR SEQ ID NOs 98/106, mouse IgG2a Fc (antibody, V domains shown, mouse IgG2a Fc) VH: QVKLVESGGGVVQPGRSLRLSCAASGFTFSNYVIHWVRQAPGKGLEWVAVIWYDGSNKYYADSVKGRFTISRDNSKNTLYLQMNSLRAEDTAVYYCARDRVVRGVDYYYYYGLDVWGQGTSVTVSS VL: EIVMTQSPATLSVSPGERATLSCRASQSVRSNLAWYQQKPGQAPRLLIYGASSRATGIPARFSGTGSGTEFTLTISSLQSDDFAVYYCQQYNKWPRTFGQGTKVEIK
val: 6

molecule: H1M9207N: anti-APLNR antibody, HCVR/LCVR SEQ ID NOs 2/10, mouse IgG1 Fc (antibody, V domains shown, mouse IgG1 Fc) VH: EVQLVESGGGLAQPGGSLRLSCAASGFTFSNYWMSWVRQAPGKGLEWVANIKQDGSEKYYLESVKGRFTISRDNAKNLLYLQMNSLRAEDTAVFYCARPGLLRFLEPGRRYYSGMNVWGQGTTVTVSS VL: DIQLTQSPSFLSASVGDRVTITCWASQGIRSYLAWYQQKPGKAPKLLIYAASTLQSGVPSRFSGSGSGTEFTLTISSLQPEDFATYYCQQFNSYPWTFGQGTKVEIK
val: 4

molecule: H2aM9228N: anti-APLNR antibody, HCVR/LCVR SEQ ID NOs 66/74, mouse IgG2a Fc (antibody, V domains shown, mouse IgG2a Fc) VH: EVQLVESGGGLVQPGGSLRLSCAASGFTFSNYWMSWVRLAPGKGLEWVANIKQDGSERYYVGSVKGRFTISRGDAKNSLYLQMNSLRAEDTAVYYCARDRFGYSAFDKGVRYYYGMDVWGQGTTVTVSS VL: DIQMTQSPSSLSASVGDRVTITCRASQGIRNDLGWYQQKPGKAPKRLIYAASSLQSGVPSRFSGSGSGTEFTLTISSLQPEDFATYYCLQHNSYPRTFGQGTKVEIK
val: 3

molecule: H2aM9227N: anti-APLNR antibody, HCVR/LCVR SEQ ID NOs 50/58, mouse IgG2a Fc (antibody, V domains shown, mouse IgG2a Fc) VH: EVQLVESGGGLVQPGGSLRLSCAASGFTFSSFWMSWVRQVPGKGLEWVANIKQDGSEKYYVDSVKGRFTISRDNAKNSLYLQMNSLRAEDTAVYYCARDRFGYSFYDKGVRYYYGMDVWGQGTTVTVSS VL: DIQMTQSPSSLSVSVGDRVTITCRASQGIRNDLGWYQQKPGKAPKRLIYATSSLQSGVPSRFSGSGSGTEFTLTISGLQPEDFATYYCLQHNSYPRTFGQGTKVEIK
val: 4

molecule: H2aM9230N: anti-APLNR antibody, HCVR/LCVR SEQ ID NOs 82/90, mouse IgG2a Fc (antibody, V domains shown, mouse IgG2a Fc) VH: EVQLVESGGGLVQPGGSLRLSCAASGFTFSSFWMSWVRQVPGKGLQWVANIKQDGSEKYYVDSVKGRFTISRDNAKNSLYLQMNSLRAEDTAVYYCARDRFGYSVYDKGVRYYYGMDVWGQGTTVTVSS VL: DIQMTQSPSSLSVSVGDRVTITCRASQGIRNDLGWYQQKPGKAPKRLIYAASSLQSGVPSRFSGSGSGTEFTLTISGLQSEDFATYYCLQHKSYPRTFGQGTKVEIK
val: 3

molecule: H2aM9222N: anti-APLNR antibody, HCVR/LCVR SEQ ID NOs 34/42, mouse IgG2a Fc (antibody, V domains shown, mouse IgG2a Fc) VH: EVQLVESGGGLVQPGGSLRLSCAASGFTFSNYWMSWVRQAPGKGLEWVANIKQDGSERYYVGSVKGRFTISRGDAENSLYLQMNSLRAEDTAVYYCARDRFGYSAYDKGVRYYYGMDVWGQGTTVTVSS VL: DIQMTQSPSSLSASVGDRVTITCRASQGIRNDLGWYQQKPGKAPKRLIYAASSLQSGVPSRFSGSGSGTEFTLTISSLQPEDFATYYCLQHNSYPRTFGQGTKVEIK
val: 2
